FYI, the data here is from patent US6916832B2.

# system-under-test: rat striatal D1 receptors (Rattus norvegicus, UniProt P18901)
# Construct: Frozen rat striata was homogenized by seven manual strokes
# Sequence (P18901 whole entry): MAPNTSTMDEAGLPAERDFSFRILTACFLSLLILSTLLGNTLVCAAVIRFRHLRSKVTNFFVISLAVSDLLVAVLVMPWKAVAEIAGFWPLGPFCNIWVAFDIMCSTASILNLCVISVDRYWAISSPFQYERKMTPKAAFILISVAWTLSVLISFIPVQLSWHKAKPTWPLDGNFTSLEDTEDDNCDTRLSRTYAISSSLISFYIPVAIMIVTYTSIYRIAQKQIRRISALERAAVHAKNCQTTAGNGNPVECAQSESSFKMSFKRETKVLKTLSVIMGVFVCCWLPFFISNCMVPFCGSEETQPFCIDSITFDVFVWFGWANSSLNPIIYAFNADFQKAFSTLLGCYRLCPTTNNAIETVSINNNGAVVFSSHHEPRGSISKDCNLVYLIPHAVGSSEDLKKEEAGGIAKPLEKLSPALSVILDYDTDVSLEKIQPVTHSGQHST
# method-notes: Radioreceptor binding, rat striatal D1 receptors labeled with [3H]SCH23390
# condition-info: [3H]SCH23390 label, rat striatum; read-out: K0.5 for rat striatal D1 receptors
# Description: FIG. 1 is a graphic representation of the affinity of dinoxyline (circles), dinapsoline (diamonds) and (+)-SCH23390 (solid circles) for striatal D1 receptors. […] Frozen rat striata was homogenized by seven manual strokes in a Wheaton Teflon-glass homogenizer in 8 ml ice cold 50 mM HEPES buffer with 4.0 mM MgCl2, (pH 7.4). […] After shaking for 30 minutes, radioactivity was determined on a LKB Wallac 1219 RackBeta liquid scintillation counter (Wallac, Gaithersburg, Md.). […]
result-type: Ki

# compound Br.Oc1ccc2c(c1O)Oc1cccc3c1C2CNC3 (racemic) [dinoxyline, hydrobromide] ; its Ki = < 5 nM
